# SYSTEM TESTED: Protein farnesyltransferase (Rattus norvegicus, UniProt Q02293+Q04631)
# ASSAY PROCEDURE: Inhibition of Farnesyltransferase
Mark Satisfied for IC50 under 900 nM, Not satisfied if at or over.

Below, 4 molecules whose answers are already recorded.
MOLECULE	QUALITATIVE LABEL
C=C(CC[C@]12O[C@H](C(=O)O)[C@@](O)(C(=O)O)[C@](C(=O)O)(O1)[C@H](OC(=O)/C=C/[C@@H](C)C[C@@H](C)CC)[C@H]2O)[C@@H](OC(C)=O)[C@H](C)Cc1ccccc1 [ZARAGOZIC ACIDS A]	Satisfied
CC(=O)O[C@H]1CC[C@]2(CO)[C@H](CC[C@@]3(C)[C@H]2C=C(C)[C@@]2(C)C(O)=C(C)C(=O)[C@]23C(=O)O)C1(C)C [ANDRASTATIN B]	Not satisfied
C=C1C(=O)O[C@@H]2[C@H]3C[C@@]4(C)C=CC3(CC43C(=O)O[C@@H]4C5C(C)=CC(=O)C5=C(C)C[C@H](CC(=O)CC(C)C)C43)[C@](C)(O)CC[C@@H]12 (stereo partly specified) [ARTEMINOLIDE]	Satisfied
CC(C)=CCC/C(C)=C/CC/C(C)=C/CC/C(=C/C(=O)O)C(=O)O [SCHIZOSTATIN Z]	Not satisfied

Next molecule, please.
input: Given the entry COC(=O)C1=CC(CO)=COc2oc3cccc(O)c3c(=O)c21 [FUSIDIENOL] , would its reported IC50 be below 900 nM?
output: Satisfied

---

# SYSTEM TESTED: Protein farnesyltransferase (Rattus norvegicus, UniProt Q02293+Q04631)
# ASSAY PROCEDURE: Inhibition of Farnesyltransferase
Measured pIC50 of individual entries
# pIC50: negative log10 of molar concentration; output just the value

Some entries whose results are on file:
> print(dat)
                                   molecule                             system.tested  measured.value
1  CC(=O)O[C@H]1CC[C@]2(C=O)[C@H](CC[C@@]3(C)[C@H]2C=C(C)[C@@]2(C)C(O)=C(C)C(=O)[C@]23C(=O)O)C1(C)C [ANDRASTATIN A]  Protein farnesyltransferase (Rattus norvegicus, UniProt Q02293+Q04631)            4.60
2  CC(C)CCCC(C)C1CCC2C3CCC(=O)[C@](C)(C[C@@H](CC(=O)O)C(=O)O)C3CC[C@]12C (stereo partly drawn)  Protein farnesyltransferase (Rattus norvegicus, UniProt Q02293+Q04631)            6.72

Switching to the query record.
input: Tell me measured pIC50 for CC(=O)O[C@H]1CC[C@]2(C)[C@H](CC[C@@]3(C)[C@H]2C=C(C)[C@@]2(C)C(O)=C(C)C(=O)[C@]23C(=O)O)C1(C)C [ANDRASTATIN C] please.
output: 4.88

---

# ASSAY PROCEDURE: Partition coefficient (logP)
# Assay type: physicochemical
# ASSAY CONDITIONS: octanol/water
Measured logP of individual entries
Respond numerically, and do not add a unit to the figure.

Some entries whose results are on file:
MOLECULE	logP
CC(=O)O[C@H]1CC[C@]2(C=O)[C@H](CC[C@@]3(C)[C@H]2C=C(C)[C@@]2(C)C(O)=C(C)C(=O)[C@]23C(=O)O)C1(C)C	1.7
CC(=O)O[C@H]1CC[C@]2(C)[C@H](CC[C@@]3(C)[C@H]2C=C(C)[C@@]2(C)C(O)=C(C)C(=O)[C@]23C(=O)O)C1(C)C	2.7

input: Tell me measured logP for COC(=O)C1=CC(CO)=COc2oc3cccc(O)c3c(=O)c21 please.
output: 1.8

input: Tell me measured logP for CC(=O)O[C@H]1CC[C@]2(CO)[C@H](CC[C@@]3(C)[C@H]2C=C(C)[C@@]2(C)C(O)=C(C)C(=O)[C@]23C(=O)O)C1(C)C please.
output: 1.6

input: Tell me measured logP for C=C(CC[C@]12O[C@H](C(=O)O)[C@@](O)(C(=O)O)[C@](C(=O)O)(O1)[C@H](OC(=O)/C=C/[C@@H](C)C[C@@H](C)CC)[C@H]2O)[C@@H](OC(C)=O)[C@H](C)Cc1ccccc1 please.
output: 2

input: Tell me measured logP for C=C1C(=O)O[C@@H]2[C@H]3C[C@@]4(C)C=CC3(CC43C(=O)O[C@@H]4C5C(C)=CC(=O)C5=C(C)C[C@H](CC(=O)CC(C)C)C43)[C@](C)(O)CC[C@@H]12 (stereo partly drawn) [ARTEMINOLIDE] please.
output: 1.8

input: Tell me measured logP for CC(C)=CCC/C(C)=C/CC/C(C)=C/CC/C(=C\C(=O)O)C(=O)O please.
output: 1.3

input: Tell me measured logP for CC(C)=CCC/C(C)=C/CC/C(C)=C/CC/C(=C/C(=O)O)C(=O)O please.
output: 1.4

Cited source: ChEMBL document CHEMBL1135603
